Experiment: chemical genetic growth profiling, strain panel (AID 1159580);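 note: tested at 20 µM; growth read once vehicle control cultures reached saturation at 30 °C; 1 = growth at the plate median or of vehicle wells; lower values mean less growth of the strain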
Settings: S. cerevisiae deletion strains, growth OD, locus YDR150W, strain NUM1, stronger effect = lower value
The whole screen tested about 5,500 compounds, of which about 2,000 (36%) were called active. Not shown: some 18% with an inconclusive outcome. The list shows a part of the results.
Kindly state normalized growth for each of the entries shown.
No unit in the answer, only the number.

Entry under test: C/C=C(\C)C(=O)O[C@@H]1c2c(ccc3ccc(=O)oc23)OC(C)(C)[C@@H]1OC(C)=O . Its normalized growth was 0.997

For this compound ( O=C(Nc1ccc(OC(F)(F)F)cc1)Nc1cccc(C(=O)O)c1 ), measured normalized growth is 0.947

Please fill in: normalized growth reported for CC1(C)Oc2ccc3ccc(=O)oc3c2CC1O (stereo unspecified) = 1.01

The compound listed as O=C(O)CCC(=O)N1CCCC1C(=O)O (stereo unspecified) has a reported normalized growth of 0.998

The compound identified as C/C=C(/C)C(=O)O[C@@H]1Cc2c(ccc3ccc(=O)oc23)OC1(C)C registered its normalized growth at 0.934

Documented normalized growth of CCOC(=O)/C(C#N)=C/Nc1ccc2c(c1)OCO2 : 1

Recorded values, source PubChem BioAssay AID1159580.
